Consider the following compounds and their measured melting point readings.
assay_readout: melting point

| compound | reported_value |
| --- | --- |
| COC[C@](C#N)(C(=O)OC(C)(C)C)[C@H](c1ccccc1OC)c1cccc2ccccc12 (relative stereo) [Example 149] | 163 to 165.3 °C |
| CCOC(=O)C(C)(C#N)C(c1cccc2ccccc12)c1cccc2ccccc12 (stereo not shown) | 186 to 188 °C |
| COc1ccccc1[C@@H](c1cccc2ccccc12)[C@](C#N)(COCc1ccccc1)C(=O)N1CCN(CCCN(C)C)CC1 (relative stereo) [Example 205] | 192 to 193 °C |
| COc1ccccc1[C@H](c1cccc2ccccc12)[C@@](C)(C#N)C(=O)N1CCN(c2ccncc2)CC1 [Example 133] | 142 to 144 °C |

---

assay_readout: melting point

| molecule | reported_value |
| --- | --- |
| COC(=O)[C@@](C#N)(Cc1ccc(-c2cccc(C(F)(F)F)c2)cc1)[C@H](c1ccccc1OC)c1cccc2ccccc12 (relative stereo) [Example 153] | 202 to 204.1 °C |
| COCCN1CCN(C(=O)C(C#N)(COCc2ccccc2)C(c2ccccc2OC)c2cccc3ccccc23)CC1 (stereo not shown) [Example 207] | 140 to 141 °C |
| COc1ccccc1[C@H](c1cccc2ccccc12)[C@@](C)(C#N)C(=O)N1CCN(c2cnccn2)CC1 [Example 214] | 143 to 144 °C |
| COc1ccccc1[C@H](c1cccc2ccccc12)[C@@](C)(C#N)C(=O)N1CCC(N2C(=O)CCc3ccccc32)CC1 [Example 134] | 265 to 267 °C |
| COc1ccccc1[C@H](c1cccc2ccccc12)[C@@](C)(C#N)C(=O)N1CCN(c2cccc3[nH]ccc23)CC1 | 174 to 176 °C |
| CC(C)(C)OC(=O)C(C#N)C(c1ccccc1OC(F)(F)F)c1cccc2ccccc12 (stereo not shown) | 115 to 118 °C |
| COC(=O)[C@@](C#N)(Cc1ccncc1)[C@H](c1ccccc1OC)c1cccc2ccccc12 (relative stereo) [Example 142] | 228 to 230 °C (dec.) |

---

Test system: NF-κB
Assay: IL-1β stimulated NF-κB reporter activity in ERα expressing HAECT-1 cells
Format: cell-based, human
Conditions: Homo sapiens, HAECT1; ERα expressing HAECT-1 cells, FIG. 1A

| molecule | IC50, nM |
| --- | --- |
| COc1ccccc1[C@H](c1cccc2ccccc12)[C@@](C)(C#N)C(=O)N1CCC(c2cccc(C(F)(F)F)c2)CC1 [Example 67] | 122 |

---

Tested on: ER/IL-6
Test: Endothelial Cell ER/IL-6 Assay, IL-6 promoter luciferase (Table 2)
Assay type: cell-based, human
Details: Homo sapiens, HAECT1, read-out: IL6 luc IC50
assay_readout: IC50 (nM)

| compound | assay_readout | reported_value |
| --- | --- | --- |
| COc1ccccc1[C@H](c1cccc2ccccc12)[C@@](C)(C#N)C(=O)N1CCC(=O)CC1 [Example 191] | IC50 | 586 |

---

System: ER/IL-6
Test: Endothelial Cell ER/IL-6 Assay, IL-6 promoter luciferase (Table 2)
Format: cell-based, human
Conditions: Homo sapiens, HAECT1; ERα infected HAECT-1 cells, IL-1β; read-out: IL6 luc IC50
Mark criterion met only for IC50 values smaller than 0.04 µM; exact matches and larger values are criterion not met.

| molecule | cat |
| --- | --- |
| COc1ccccc1[C@@H](c1cccc2ccccc12)[C@](C#N)(COCc1ccccc1)C(=O)N1CCN(CCCN(C)C)CC1 (relative stereo) [Example 205] | criterion not met |
| COc1ccccc1[C@H](c1cccc2ccccc12)[C@@](C)(C#N)C(=O)N1CCN(CC(=O)N2CCCC2)CC1 [Example 201] | criterion not met |
| COc1ccccc1[C@H](c1cccc2ccccc12)[C@@](C)(C#N)C(=O)N1CCc2c([nH]c3ccccc23)C1 [Example 190] | criterion not met |
| COCCOC[C@](C#N)(C(=O)OC)[C@H](c1ccccc1OC)c1cccc2ccccc12 [Example 158] | criterion met |
| CCN(CC)CC[C@](C#N)(C(=O)OC)[C@H](c1ccccc1OC)c1cccc2ccccc12 (relative stereo) [Example 148] | criterion not met |
| COc1ccccc1[C@H](c1cccc2ccccc12)[C@@](C)(C#N)C(=O)N1CC=C(c2c[nH]c3ccccc23)CC1 [Example 182] | criterion not met |
| COC(=O)[C@@](C#N)(Cc1ccc(Br)cc1)[C@H](c1ccccc1OC)c1cccc2ccccc12 (relative stereo) [Example 152] | criterion met |
| COc1ccccc1[C@H](c1cccc2ccccc12)[C@](C#N)(COCc1ccccc1)C(=O)OC(C)(C)C (relative stereo) [Example 154] | criterion met |
| COC[C@](C#N)(C(=O)NCC(C)(C)C)[C@H](c1ccccc1OC)c1cccc2ccccc12 (relative stereo) [Example 181] | criterion not met |
| COC(=O)[C@](C#N)(Cc1cccnc1)[C@@H](c1ccccc1OC)c1cccc2ccccc12 [Example 155] | criterion met |
| COc1ccccc1[C@H](c1cccc2ccccc12)[C@@](C)(C#N)C(=O)N1CCN(c2cccc(Br)c2)CC1 [Example 131] | criterion met |
| COc1ccccc1[C@H](c1cccc2ccccc12)[C@@](C)(C#N)C(=O)N1CCN(c2cnccn2)CC1 [Example 214] | criterion not met |
| COc1ccccc1[C@H](c1cccc2ccccc12)[C@@](C)(C#N)C(=O)N1CCC(c2cccc(C(F)(F)F)c2)C(O)C1 (some centres unmarked) [Example 185] | criterion not met |

---

Measured melting point of individual entries
assay_readout: melting point

| molecule | assay_readout | reported_value |
| --- | --- | --- |
| COc1ccccc1C(c1ccnc2ccccc12)C(C#N)(Cc1cccnc1)C(=O)OC(C)(C)C (stereo not shown) | melting point | 225 to 228 °C |
| COC[C@](C#N)(C(=O)OC)[C@H](c1ccccc1OC)c1cccc2ccccc12 (relative stereo) [Example 141] | melting point | 148.3 to 151 °C |
| COc1ccccc1[C@H](c1cccc2ccccc12)[C@@](C)(C#N)C(=O)N1CCN(c2cccc(C)c2C)CC1 | melting point | 194 to 195 °C |
| COC[C@](C#N)(C(=O)OC)[C@H](c1ccccc1OC)c1cccc2ccccc12 [Example 150] | melting point | 176 to 178 °C |

---

Test system: CK
Experiment: Creatine kinase assay in ERα infected HAECT-1 cells (Table 2)
Assay type: cell-based, human
Conditions: Homo sapiens, HAECT1
Ranges used to classify EC50: class 1 (below 50 nM), class 2 (50 nM to below 200 nM), class 3 (200 nM or more)

| compound | cat |
| --- | --- |
| COc1ccccc1C1CCN(C(=O)[C@](C)(C#N)[C@H](c2ccccc2OC)c2cccc3ccccc23)CC1 | class 1 |
| COCCOC[C@](C#N)(C(=O)OC)[C@H](c1ccccc1OC)c1cccc2ccccc12 [Example 158] | class 2 |
| COCCOC[C@](C#N)(C(=O)OC)[C@H](c1ccccc1OC)c1cccc2ccccc12 (relative stereo) [Example 144] | class 1 |
| COC(=O)[C@@](C#N)(Cc1ccc(Br)cc1)[C@H](c1ccccc1OC)c1cccc2ccccc12 (relative stereo) | class 2 |
| COc1ccccc1[C@H](c1cccc2ccccc12)[C@@](C)(C#N)C(=O)N1CCC(n2c(=O)[nH]c3ccccc32)CC1 | class 3 |
| COc1ccccc1[C@H](c1cccc2ccccc12)[C@@](C)(C#N)C(=O)N1CCN(c2cccc(Br)c2)CC1 | class 3 |
| COC[C@@](C#N)(C(=O)OC)[C@@H](c1ccccc1OC)c1cccc2ccccc12 | class 1 |
| COc1ccccc1[C@H](c1cccc2ccccc12)[C@@](C)(C#N)C(=O)N1CCC(N2C(=O)Cc3ccccc32)CC1 | class 3 |
| COc1ccccc1[C@H](c1cccc2ccccc12)[C@@](C)(C#N)C(=O)N1CCN(c2ncccn2)CC1 | class 3 |
